Measured values drawn from patent US20230183319A1 for this set.

Biological target: Q98V
Assay: SPR; 25C
QUANTITY_MEASURED: Kd (nM)
Could you give me the number in nM? Just the number is fine.

Please review the entries below; each comes with its answer.
BINDER: BMP10 (ligand) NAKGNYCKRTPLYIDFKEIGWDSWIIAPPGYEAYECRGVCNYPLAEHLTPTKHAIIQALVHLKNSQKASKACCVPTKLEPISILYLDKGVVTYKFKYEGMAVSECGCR
QUANTITY_MEASURED: Kd
VALUE_REPORTED: 0.048
--
BINDER: Activin A (ligand) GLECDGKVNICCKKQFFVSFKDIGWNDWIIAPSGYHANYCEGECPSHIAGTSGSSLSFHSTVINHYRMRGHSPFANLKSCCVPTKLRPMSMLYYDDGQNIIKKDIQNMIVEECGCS
QUANTITY_MEASURED: Kd
VALUE_REPORTED: 0.16
--
BINDER: BMP9 (ligand) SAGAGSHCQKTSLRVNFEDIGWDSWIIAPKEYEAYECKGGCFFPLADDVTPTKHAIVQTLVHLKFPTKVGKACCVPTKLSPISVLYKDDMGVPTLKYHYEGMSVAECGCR
QUANTITY_MEASURED: Kd
VALUE_REPORTED: 0.047

Turning now to a further binder:
Query: Give its Kd value. Item: GDF11 (ligand) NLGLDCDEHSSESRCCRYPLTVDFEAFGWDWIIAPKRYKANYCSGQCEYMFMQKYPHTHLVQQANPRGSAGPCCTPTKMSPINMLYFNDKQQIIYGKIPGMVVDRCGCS
Reply: 0.033
